melting point by entry:
reported_endpoint: melting point (°C)

>  <molecule>
Cc1ccc2c(c1)C(=O)c1ccc(C#N)cc1S2(=O)=O

>  <unit_label>
°C

>  <value_measured>
290

$$$$
>  <molecule>
CC(C)(C)Sc1ssc(=S)c1Cl

>  <unit_label>
°C

>  <value_measured>
45

$$$$
>  <molecule>
Cc1nc(C(C)c2ccccc2)c2c(c1O)COC2 (stereo unspecified)

>  <unit_label>
°C

>  <value_measured>
163

$$$$

---

Below, each entry is listed with its recorded melting point.
reported_endpoint: melting point

>  <compound>
CCOC(=O)c1nc(C)n2c1CN=C(c1ccccn1)c1cc(Br)ccc1-2

>  <value_measured>
240 to 243 °C

$$$$
>  <compound>
O=C1c2ccccc2-c2c1c1ccccc1c(=O)n2CCNCCO

>  <value_measured>
184 °C

$$$$
>  <compound>
O=[N+]([O-])c1ccccc1N1CCN(Cc2ccccc2)CCN1

>  <value_measured>
90 to 92 °C

$$$$
>  <compound>
CC(C)(C)C(=O)Nc1ccc(F)cc1C1(O)CCN(C/C=C/c2ccc(Cl)cc2)CC1

>  <value_measured>
172 to 173 °C

$$$$
>  <compound>
CCCCc1ncc(/C=C(\Cc2cccs2)C(N)=O)n1Cc1ccccc1[N+](=O)[O-]

>  <value_measured>
183 to 185 °C

$$$$
>  <compound>
COc1ccc(COc2ccc3cc(C(C)C(=O)O)ccc3c2)cc1OC1CC2CCC1C2 (stereo unspecified)

>  <value_measured>
125 to 128 °C

$$$$
>  <compound>
CC(C)NCC(O)COc1ccc2c(c1)CCN(C=O)C2 (stereo unspecified)

>  <value_measured>
56.6 to 58 °C

$$$$
>  <compound>
COc1c(I)c(OC)c2ccccc2c1C(=O)OCc1ccccc1

>  <value_measured>
80 to 83 °C

$$$$
>  <compound>
C#CCCCOc1c(C)cc(-c2noc(C)n2)cc1C

>  <value_measured>
41.5 to 43 °C

$$$$
>  <compound>
CCOc1nn(-c2ccc(C(F)(F)F)cn2)cc1CCCOc1ccccc1CC(=O)O

>  <value_measured>
83 to 84 °C

$$$$
>  <compound>
CC(C)C(=O)NC1CCc2c(c3cc(-c4ccccn4)ccc3n2Cc2cccc(F)c2)C1 (stereo unspecified)

>  <value_measured>
228 to 230 °C

$$$$
>  <compound>
Cc1cc(C)c2c(c1C)OCC2=O

>  <value_measured>
92 to 93 °C

$$$$
>  <compound>
O=c1c2c(n(-c3ccccc3)c3ncccc13)SCC2

>  <value_measured>
260 to 261 °C

$$$$
>  <compound>
CN1CCN(C(=O)c2cnn(C)c2C(=O)Nc2ccn3nc(-c4cccc(F)c4)nc3c2)CC1

>  <value_measured>
224 to 227 °C

$$$$
>  <compound>
COc1cc(C(=O)/C=C/c2ccc3c(c2)OCO3)cc(OC)c1OC

>  <value_measured>
135 °C

$$$$
>  <compound>
Cn1c(CC(=O)O)ccc1C(=O)c1ccc([N+](=O)[O-])cc1

>  <value_measured>
192 to 195 °C

$$$$
>  <compound>
COc1ccc(C(=CC(=O)N2CCOCC2)c2ccc(NC(=O)c3ccc(Cl)cc3)cc2)cc1OC

>  <value_measured>
197 to 207 °C

$$$$
>  <compound>
NS(=O)(=O)OCCOc1cccc(OCc2ccccc2)c1

>  <value_measured>
107 to 109 °C

$$$$
>  <compound>
CCC1(CC)C(=O)C(C)N(c2ccc(C#N)c(Cl)c2)C1=O (stereo unspecified)

>  <value_measured>
93.5 to 94.5 °C

$$$$
>  <compound>
Nc1c(Cl)cc(CC(=O)c2ccccc2)c2c1OCCO2

>  <value_measured>
133 to 135 °C

$$$$
>  <compound>
Cc1cc(-c2nc3c(C)cc(Cl)nn3c2-c2ccnc(N)c2)ccc1F

>  <value_measured>
218 to 219 °C

$$$$
>  <compound>
CCOP(=O)(Cc1ccc(NC(=O)CCc2c(C)noc2-c2ccccc2)cc1)OCC

>  <value_measured>
114 to 115 °C

$$$$
>  <compound>
Cc1ccc(-c2cnc(-c3cc(C(F)(F)F)cc(C(F)(F)F)c3)s2)s1

>  <value_measured>
120 to 121 °C

$$$$
>  <compound>
CC(O)(CF)C(=O)Nc1ccc(S(=O)(=O)c2ccccc2)cc1 (stereo unspecified)

>  <value_measured>
189 to 192 °C

$$$$
>  <compound>
COc1cc(N)c(Cl)cc1C(=O)NCC1CCN(CCCCCNCc2ccc(F)cc2)CC1

>  <value_measured>
66 to 68 °C

$$$$
>  <compound>
CS(=O)(=O)c1nc2c([nH]1)N(Cc1ccc(Cl)cc1)C1NCCN1C2=O (stereo unspecified)

>  <value_measured>
282 to 284 °C

$$$$
>  <compound>
O=C(Nc1ccc(O)cc1O)c1cc(Cl)c(O)c(Cl)c1

>  <value_measured>
235 to 237 °C

$$$$
>  <compound>
Cc1ccc(NC(=O)OCC(C)C)cc1Nc1ncc(-c2cccnc2)o1

>  <value_measured>
186 °C

$$$$
>  <compound>
CC(C)n1cc(C#N)c(-c2ccc([N+](=O)[O-])o2)n1

>  <value_measured>
181 to 182 °C

$$$$
>  <compound>
C=CCOc1ccc(C(=O)CC(C#N)c2ccc(OC)cc2OC)cc1 (stereo unspecified)

>  <value_measured>
112 to 113 °C

$$$$
>  <compound>
Cc1cc2c(cc1C)C1(CO2)C(=O)N(Cc2ccccn2)c2ccccc21 (stereo unspecified)

>  <value_measured>
165 to 168 °C

$$$$
>  <compound>
O=C1C(O)=C(c2ccc(Cl)cc2)C(=O)C(O)=C1/C=C/c1ccccc1

>  <value_measured>
258 to 259 °C

$$$$
>  <compound>
NS(=O)(=O)c1ccc(N2CCN(CC[C@@H]3OCCc4cc(Br)ccc43)CC2)c(Br)c1

>  <value_measured>
206 to 208 °C

$$$$
>  <compound>
COCCOc1c(S(C)(=O)=O)ccc(C(=O)c2cnn(C)c2O)c1C

>  <value_measured>
112 to 114 °C

$$$$
>  <compound>
Nc1nc(Cl)c2ncn(COCCOCCOC(=O)c3ccccc3)c2n1

>  <value_measured>
111 to 112 °C

$$$$
>  <compound>
COc1cc2ncn(CCO)c(=O)c2cc1OC

>  <value_measured>
130 °C

$$$$
>  <compound>
O=C1C2CCCCN2C(=O)N1c1ccccc1 (stereo unspecified)

>  <value_measured>
186 to 187 °C

$$$$
>  <compound>
CC(c1ccc(O)cc1)(c1ccc(O)cc1)C(F)(F)F

>  <value_measured>
93 to 94.5 °C

$$$$
>  <compound>
COc1ccc(-c2cnc3cc4cnn(CCO)c4cc3n2)cc1F

>  <value_measured>
192 to 195 °C

$$$$
>  <compound>
COc1ccccc1N1CCN(C(=O)N(C)c2nc3ccccc3nc2OC)CC1

>  <value_measured>
128 to 130 °C

$$$$
>  <compound>
Nc1cc(CCC(=O)CCc2ccc(O)c(N)c2)ccc1O

>  <value_measured>
131 to 133 °C

$$$$
